- system_name: T1, monomeric hActRIIB (human, UniProt Q13705 19-134, limits assumed)
- T1 construct: also called ActRIIB MONOMER; ActRIIB monomer
- experiment: SPR (Biacore), 37 C, antibody captured on anti-hFc IgG chip, monomeric ActRIIB injected, 1:1 model
What koff was measured for each of the following?
Numbers only here, please. The scale is s⁻¹.

[Q] For the binder J01 (antibody, V domains shown, also called J01 antibody; mAB J01) VH: QVQLVQSGAEVKKPGASVKVSCKASGYTFTSYRMHWVRQAPGQGLEWMGFIVPSGGSTSYAQKFQGRVTMTRDTSTSTVYMELSSLRSEDTAVYYCARVSRYAPEPMDVWGQGTTVTVSS VL: DIQMTQSPSSVSASVGDRVTITCRASQGISRWLAWYQQKPGKAPKLLIYAASSLQSGVPSRFSGSGSGTDFTLTISSLQPEDFATYYCQQAFSHPWTFGGGTKVEIK , report koff.
[A] 0.00022

[Q] For the binder N01 (antibody, human IgG1, kappa, V domains shown, also called N01 antibody; mAB N01) VH: QLQLQESGPGLVKPSETLSLTCTVSGGSISSSSYYWGWIRQPPGKGLEWIGSISYSGSTYYNPSLKSRVTISVDTSKNQFSLKLSSVTAADTAVYYCARDSLRYGMDVWGQGTTVTVSS VL: DIQMTQSPSTLSASVGDRVTITCRASQSIGSWLAWYQQKPGKAPKLLIYKASSLESGVPSRFSGSGSGTEFTLTISSLQPDDFATYYCQVYGSYSPRTFGGGTKVEIKR , report koff.
[A] 0.00769

[Q] For the binder M01 (antibody, V domains shown, Optimized human IgG; It was captured through its Fc on an anti-hFc IgG chip; also called M01 antibody; mAB M01) VH: EVQLLESGGGLVQPGGSLRLSCAASGFTFGSYGMTWVRQAPGKGLEWVSVISGSGGGTYYADSVKGRFTISRDNSKNTLYLQMNSLRAEDTAVYYCAKGPRVVGMDVWGQGTTVTVSS VL: DIQMTQSPSSVSASVGDRVTITCRASQGISSWLAWYQQKPGKAPKLLIYAASSLQSGVPSRFSGSGSGTDYTLTISSLQPEDFATYYCQQVFSYPLTFGGGTKVEIK , report koff.
[A] 8.72e-05

[Q] For the binder L01 (antibody, human IgG1, kappa, V domains shown, Naive human IgG; also called L01 antibody; mAB L01) VH: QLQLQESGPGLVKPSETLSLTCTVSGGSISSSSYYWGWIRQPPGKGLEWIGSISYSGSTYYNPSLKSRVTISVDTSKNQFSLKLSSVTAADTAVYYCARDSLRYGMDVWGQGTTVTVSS VL: EIVMTQSPATLSVSPGERATLSCRASQSVSSNLAWYQQKPGQAPRLLIYGASTRATGIPARFSGSGSGTEFTLTISSLQSEDFAVYYCQVYNVWPRTFGGGTKVEIKR , report koff.
[A] 0.0179
